Entries annotated with measured viability
Assay Explanation: SK-BR-3 cell growth inhibitors, pilot screen, 24 h, human (AID 572);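 also: compound exposure lasted between 18 and 24 h rather than exactly 24 h; 100% = carrier-treated control wells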
Condition Notes: SK-BR-3 viability, CellTiter-Glo luminescence, at 10 µM, stronger effect = lower value
// units = %; emit number, no label

[[record]]
molecule = "CCOc1ccc(-c2nnn(CCC(=O)O)n2)cc1OC"
recorded_result = 95.5

[[record]]
molecule = "CCOC(=O)CNc1ccc2c(c1)OCO2"
recorded_result = 88

[[record]]
molecule = "COC(=O)c1ccccc1NC(=O)C1CCCCC1C(=O)O (stereo not given)"
recorded_result = 103

[[record]]
molecule = "COc1ccc(OC)c(C(=O)CSc2nnc(-c3ccc(OC)c(OC)c3)o2)c1"
recorded_result = 104

[[record]]
molecule = "COc1ccc(Br)cc1S(=O)(=O)N1CC(C)OC(C)C1 (stereo not given)"
recorded_result = 90.5

[[record]]
molecule = "Cc1ccc(-n2ncc3c(=O)n(CC(=O)NC4CCCCC4)cnc32)cc1C"
recorded_result = 105


Now for the molecule whose viability we want.
*Q* Could you share which viability value was measured for Cc1nn(-c2ccc(F)cc2)c(C)c1NS(=O)(=O)c1ccc(Cl)cc1 ?
*A* 106

----------
Assay Explanation: RAM signaling pathway blockade in yeast – S. cerevisiae, Pdr1DBD-CYC8 efflux-inhibited sensitized strain, primary screen (AID 1298);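 also: 0% = DMSO untreated cells without growth and 100% = 10 µM 1-NA-PP1 full growth; higher means more yeast growth rescued from 5-FOA killing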
Condition Notes: S. cerevisiae cbk1-as DSE1-URA3 strain, 5-FOA growth OD615, 2 d; at 50 µM; stronger effect = higher value
Endpoint Name: RAM network inhibition (%)
Kindly provide the numeric value in % only, without the unit symbol.

*Q* Which measured RAM network inhibition value corresponds to Cn1c(=O)oc2cc(S(=O)(=O)NCCN3CCN(c4ccccc4F)CC3)ccc21 ?
*A* 1.48

*Q* Repeat with Cc1csc(NC(=O)C2CCCN(S(=O)(=O)c3cccnc3)C2)n1 (stereo not given)
*A* 4.94

*Q* For CC(c1ccccc1)N1CC(C(=O)N2CCN(c3ccccc3)CC2)CC1=O (stereo not given) then?
*A* 4.4

*Q* Moving on to the next compound: Cc1c(N=C2C(=O)Nc3ccccc32)c(=O)n(-c2ccccc2)n1C
*A* 1.79

----------
System: Receptor tyrosine-protein kinase erbB-2 (Homo sapiens) (UniProt P04626)
Sequence (P04626 whole entry, looked up): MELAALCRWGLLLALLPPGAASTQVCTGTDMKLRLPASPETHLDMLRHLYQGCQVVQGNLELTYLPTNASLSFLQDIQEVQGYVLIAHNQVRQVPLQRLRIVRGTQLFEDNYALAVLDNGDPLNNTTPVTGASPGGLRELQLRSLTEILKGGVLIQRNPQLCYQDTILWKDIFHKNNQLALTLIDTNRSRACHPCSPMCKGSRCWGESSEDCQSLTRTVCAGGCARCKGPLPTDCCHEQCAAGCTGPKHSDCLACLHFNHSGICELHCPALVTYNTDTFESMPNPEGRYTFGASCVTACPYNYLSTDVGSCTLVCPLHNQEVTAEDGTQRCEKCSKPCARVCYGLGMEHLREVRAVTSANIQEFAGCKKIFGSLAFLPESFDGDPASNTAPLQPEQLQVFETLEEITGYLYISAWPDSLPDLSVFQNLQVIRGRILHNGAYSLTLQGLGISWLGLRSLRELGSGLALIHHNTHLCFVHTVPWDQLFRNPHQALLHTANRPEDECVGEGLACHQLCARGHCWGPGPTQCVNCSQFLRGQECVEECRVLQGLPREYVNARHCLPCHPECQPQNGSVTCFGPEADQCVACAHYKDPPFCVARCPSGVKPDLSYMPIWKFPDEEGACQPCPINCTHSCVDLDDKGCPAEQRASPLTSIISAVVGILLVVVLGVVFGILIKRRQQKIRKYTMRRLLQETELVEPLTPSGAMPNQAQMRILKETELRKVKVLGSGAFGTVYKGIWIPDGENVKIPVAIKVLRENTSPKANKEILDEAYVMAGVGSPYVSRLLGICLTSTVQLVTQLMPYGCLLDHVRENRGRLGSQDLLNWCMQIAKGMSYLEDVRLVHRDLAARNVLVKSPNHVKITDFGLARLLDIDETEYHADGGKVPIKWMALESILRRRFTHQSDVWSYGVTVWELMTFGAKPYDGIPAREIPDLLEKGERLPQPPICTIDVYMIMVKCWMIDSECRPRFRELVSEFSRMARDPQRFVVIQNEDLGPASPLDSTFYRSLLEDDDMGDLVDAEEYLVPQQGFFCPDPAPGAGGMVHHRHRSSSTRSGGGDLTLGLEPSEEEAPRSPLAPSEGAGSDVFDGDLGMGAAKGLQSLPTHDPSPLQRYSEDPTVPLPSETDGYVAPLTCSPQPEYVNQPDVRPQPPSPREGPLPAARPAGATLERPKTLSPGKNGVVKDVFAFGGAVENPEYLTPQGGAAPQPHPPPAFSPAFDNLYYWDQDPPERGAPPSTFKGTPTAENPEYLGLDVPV
Assay Explanation: reducers of endogenous Her2 protein level, primary screen, SKBR3 breast tumor cells, AlphaScreen, ATP viability (AID 461);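 also: lower value means less Her2 protein in the cells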
Condition Notes: 18-24 h, at 10 µM, stronger effect = lower value
Endpoint Name: Her2 level (%)
Answer in %, number only, no unit symbol.

Below, 5 compounds whose answers are already recorded.
[[record]]
compound = "CCC(=O)Nc1ccc2nc(SCC(=O)N3CCCC3)sc2c1"
endpoint_name = "Her2 level"
recorded_result = 100

[[record]]
compound = "CCOC(=O)c1sc(NC(=O)CNC(=O)Cn2cnc3sc(C)c(C)c3c2=O)nc1C"
endpoint_name = "Her2 level"
recorded_result = 88.5

[[record]]
compound = "COc1ccc(C2CC(=O)C3=C(C2)Nc2ccccc2N(C(=O)C2CC2)C3c2cccnc2)cc1OC (stereo unspecified)"
endpoint_name = "Her2 level"
recorded_result = 96.5

[[record]]
compound = "O=C(c1ccccc1Br)N1CCN(c2ccccc2)CC1"
endpoint_name = "Her2 level"
recorded_result = 83.5

[[record]]
compound = "CS(=O)(=O)Nc1ccc([N+](=O)[O-])cc1Oc1ccccc1"
endpoint_name = "Her2 level"
recorded_result = 103


*Q* Fill in the blank: the reported Her2 level of C[C@H](NC(=O)OC(C)(C)C)C(=O)NCC1CCC(C(=O)O)CC1 (stereo partly specified) is ____.
*A* 97

*Q* Repeat with CN(C)CCCN1c2ccccc2CCc2ccccc21
*A* 104

*Q* Would you kindly repeat that for O=S(=O)(c1ccc(OCC(O)CN2CCC(Cc3ccccc3)CC2)cc1)N1CCOCC1 (stereo unspecified) ?
*A* 81.5

*Q* # iterate: CC(=O)[C@@]1(O)CC[C@H]2[C@@H]3CCC4=CC(=O)CC[C@]4(C)[C@H]3[C@@H](O)C[C@@]21C
*A* 104

*Q* // same read-out, input: COc1ccc(NC(=O)CSc2nnc(-c3ccccc3C)n2C)cc1
*A* 108

*Q* Do the same for O=C1CC(c2ccc(F)c(Br)c2)C2=C(CCCC2=O)N1 (stereo unspecified) please
*A* 85.5

----------
Assay Explanation: HUVEC growth inhibition – cell-based, human, primary screen (AID 575);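 also: 100% = median of untreated cell wells with 0.1% DMSO on each plate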
Condition Notes: HUVEC proliferation, CellTiter-Glo luminescence, 72 h; at 10 µM; stronger effect = lower value
Labelling field: enter Condition met if recorded viability is less than 90%. Enter Condition not met if it equals or exceeds that cut-off.

Please review the entries below; each comes with its answer.
[[record]]
compound = "COc1ccc(/C=C(/C#N)c2cccnc2)cc1OC"
assigned_class = "Condition not met"

[[record]]
compound = "OC(COc1ccc2ccccc2c1)CN1CCOCC1 (stereo unspecified)"
assigned_class = "Condition met"

[[record]]
compound = "O=C(NC1CCCC1)c1ccc2nc[nH]c2c1"
assigned_class = "Condition not met"


*Q* Below 90% on viability? Entry CC(=O)N1C(=O)C2(Nc3ccccc3N2)c2ccccc21
*A* Condition not met

*Q* Same question for CCOC(=O)c1[nH]c(C)c(C(=O)N2CCN(c3ccc(F)cc3)CC2)c1C please.
*A* Condition not met

*Q* Item: O=c1ccc(S(=O)(=O)N2CCC(Cc3ccccc3)CC2)c[nH]1
*A* Condition not met

----------
Quick list: differential viability (reversal) per entry.
Assay Explanation: reversal of MRP1-mediated doxorubicin resistance, pilot screen, H69AR cells, doxorubicin co-treatment (AID 601)
Condition Notes: H69AR cells + 2 uM doxorubicin, CellTiter-Glo, 72 h; at 10 µM; stronger effect = higher value
Field: numeric (%). Do not append units.

Example results:
[[record]]
molecule = "CCOC(=O)NC1(NCc2ccccc2)Oc2ccccc2O1"
endpoint_name = "differential viability (reversal)"
readout_unit = "%"
recorded_result = -25

[[record]]
molecule = "CCOc1cccc(-c2nnc3sc(COc4ccc(OC)cc4)nn23)c1"
endpoint_name = "differential viability (reversal)"
readout_unit = "%"
recorded_result = -1.33

[[record]]
molecule = "CN(C)c1ccc(CNn2cnnc2)cc1"
endpoint_name = "differential viability (reversal)"
readout_unit = "%"
recorded_result = -4.28

[[record]]
molecule = "COCCNC(=O)C1CCCN(c2ncccn2)C1 (centres undefined)"
endpoint_name = "differential viability (reversal)"
readout_unit = "%"
recorded_result = -8.68

[[record]]
molecule = "CSc1nc(C)c(C(=O)Nc2ccccc2)c(C)c1C#N"
endpoint_name = "differential viability (reversal)"
readout_unit = "%"
recorded_result = 6.57

[[record]]
molecule = "CN(CCc1ccccn1)C(=O)CCNC(=O)Cn1cnc2ccccc2c1=O"
endpoint_name = "differential viability (reversal)"
readout_unit = "%"
recorded_result = 13.9


*Q* Field request: differential viability (reversal) | item: COCCCn1c(SCC(=O)Nc2cccc(C)n2)nnc1-c1ccco1
*A* 12.9

*Q* // query: Nc1ccc(C(=O)OCCCc2nc3ccccc3[nH]2)cc1
*A* 1.74

*Q* Next up: CC(C[N+](C)(C)C)OC(N)=O (centres undefined)
*A* 1.13

*Q* Try this molecule too: CCCCN(CCCC)C(=O)CN(C)S(=O)(=O)c1ccc2c(c1)n(C)c(=O)c(=O)n2C
*A* 3.39

*Q* And the next one, CC(=O)OCC(=O)[C@@]12OC3(CCCC3)O[C@@H]1C[C@H]1[C@@H]3CCC4=CC(=O)C=C[C@]4(C)[C@@]3(F)[C@@H](O)C[C@@]12C ?
*A* 2.75

----------
Assay Explanation: growth suppression of yeast trafficking mutant, preliminary HTS, modulators of trafficking downstream of Golgi apparatus project, 1536-format plate, OD 615 nm (AID 637)
Condition Notes: yeast transport mutant growth, absorbance 615 nm, 18 h; stronger effect = higher value
Calls of active or inactive are those of the source. Rule as the data show it: active = inhibition above about 30%; inactive = the rest.
Quick reference for inhibition among some compounds

Worked cases, answers included:
[[record]]
compound = "Cc1cc(C)n(C(=O)CNC(=O)C2COc3ccccc3O2)n1 (configuration not stated)"
endpoint_name = "inhibition"
recorded_result = "-1.59% (inactive)"

[[record]]
compound = "COC(=O)c1c(C)oc2ccc(NS(=O)(=O)c3cccs3)cc12"
endpoint_name = "inhibition"
recorded_result = "5.9% (inactive)"

[[record]]
compound = "Cc1nc(NCc2ccco2)c2oc3ccccc3c2n1"
endpoint_name = "inhibition"
recorded_result = "4.44% (inactive)"

[[record]]
compound = "COc1cccc(CNc2nc3nc(C)c(Cl)c(C)n3n2)c1"
endpoint_name = "inhibition"
recorded_result = "-2.38% (inactive)"

[[record]]
compound = "CCS(=O)(=O)c1nc2ccccc2n1CC(=O)N1CCCCC1"
endpoint_name = "inhibition"
recorded_result = "0.79% (inactive)"


*Q* Which inhibition value is on record for COC(=O)Cc1csc(N)n1 ?
*A* -3.27% (inactive)

*Q* And what about the compound CCOc1cc(N2CCOCC2)c(OCC)cc1NC(=O)CSc1cccc[n+]1[O-] ?
*A* -4% (inactive)

*Q* Try this compound too: CCOC(=O)N1CCN(CC(O)COc2ccccc2C(C)CC)CC1 (configuration not stated)
*A* 29.2% (inactive)

*Q* // next record CCOC(=O)N1CCN(C(=O)C2CC(=O)N(Cc3ccc(OC)cc3)C2)CC1 (configuration not stated)
*A* -1.45% (inactive)

*Q* Another: CCCCNc1cc(C)oc(=O)c1C(C)=O
*A* 3.28% (inactive)

*Q* Continue with CC(C(=O)OCn1nnc2ccccc2c1=O)N1C(=O)c2ccccc2C1=O (configuration not stated)
*A* 30.2% (active)

*Q* Same thing, different compound: COc1ccc(C)cc1S(=O)(=O)Nc1cccnc1
*A* 0.16% (inactive)
